- tested system: Adenosine receptor A1 (Cavia porcellus, UniProt P47745)
- Sequence (P47745 whole entry): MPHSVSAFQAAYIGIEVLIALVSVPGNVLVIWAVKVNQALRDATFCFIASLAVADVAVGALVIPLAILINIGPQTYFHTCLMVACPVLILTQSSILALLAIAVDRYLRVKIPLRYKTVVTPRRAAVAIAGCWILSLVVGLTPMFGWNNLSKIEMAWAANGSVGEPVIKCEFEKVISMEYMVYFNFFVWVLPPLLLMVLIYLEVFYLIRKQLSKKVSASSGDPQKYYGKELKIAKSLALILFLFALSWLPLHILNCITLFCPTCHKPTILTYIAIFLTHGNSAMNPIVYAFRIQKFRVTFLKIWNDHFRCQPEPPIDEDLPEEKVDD
- run description: Binding affinity against adenosine A1 receptor of cerebral cortex using [3H]CPX as a radioligand
- Format: tissue-based
endpoint label: Ki

Some solved entries appear below for comparison.
input smiles	Ki
CCCn1c(=O)n(C)c(=O)c2c1ncn2CCC(N)=O	> 200 µM
CCCn1c(=O)n(C)c(=O)c2c1ncn2CC(N)=O	> 200 µM

Turning now to a further record.
Which measured Ki value corresponds to CCCn1c(=O)n(CCOC)c(=O)c2[nH]cnc21 ? 2.5 µM
